tested on: K562; experiment: NCI tumour cell line growth inhibition, 48 h
Calls of active or inactive are those of the source. Cut-off read from the data, not from the text of the source: active = GI50 up to about 1.1 µM and inactive = higher.
I'd be grateful if you could share measured GI50 for these entries.

Output measured GI50 for this item: C/C(=N\Nc1ccccc1Br)c1cccc(/C(C)=N/Nc2ccccc2Br)n1
39.7 µM (inactive)

Output measured GI50 for this item: O=C1c2ccccc2C(O)(C(=O)O)C1(O)CC=C(Cl)Cl (stereo not given)
> 125 µM (inactive)

Output measured GI50 for this item: CCCCCCCCCCCCCCCCOCC(Cl)COP(=O)(O)OP(=O)(O)OCC1OC(n2cnc3c(N)ncnc32)C(O)C1O (stereo not given)
> 100 µM (inactive)

Output measured GI50 for this item: Cc1ccc2c(O)cc(-c3sccc3C)nc2n1
0.427 µM (active)

Output measured GI50 for this item: O=C(CCOS(=O)(=O)CF)N1CCN(C(=O)CCOS(=O)(=O)CF)CC1
56.5 µM (inactive)

---

tested on: TK-10; test: NCI tumour cell line growth inhibition, 48 h
Active and inactive are the calls of the source. Rule as the data show it: active = GI50 up to about 1.1 µM and inactive = higher.
Lab note: assign the record to one of active, inactive

Dear colleague, could you share the recorded outcome for C[C@]12CC[C@H](O)CC1=CC[C@@H]1[C@@H]2CC[C@]2(C)C(=O)CC[C@@H]12 when you have a moment?
inactive

Dear colleague, could you share the recorded outcome for CC(C)=CC(=O)N1CCN(C(=O)C=C(C)C)CC1 when you have a moment?
inactive

Dear colleague, could you share the recorded outcome for C/C(=N\NC(=O)CC(=O)Nc1ccc(Cl)cc1)c1cc2ccccc2oc1=O when you have a moment?
inactive

Dear colleague, could you share the recorded outcome for Nc1ncnc2c1nc(Cl)n2[C@@H]1O[C@@H]2COP(=O)(O)O[C@H]2[C@H]1O when you have a moment?
inactive

Dear colleague, could you share the recorded outcome for Cc1nc2ccc(F)cc2c2c1CCO2 when you have a moment?
inactive

Dear colleague, could you share the recorded outcome for O=C(C1C(c2ccccc2)N1C(c1ccccc1)c1ccccc1)C1C(c2ccccc2)N1C(c1ccccc1)c1ccccc1 (stereo unspecified) when you have a moment?
inactive

Dear colleague, could you share the recorded outcome for CC1(C)CCC2=C(O1)c1ccccc1C(=O)C2=O when you have a moment?
inactive

Dear colleague, could you share the recorded outcome for C/C(=C\[Si](C)(C)c1ccco1)C(C)(O)[C@H](C)O (stereo partly specified) when you have a moment?
inactive

Dear colleague, could you share the recorded outcome for C/C(Cl)=N\OC(=O)Nc1ccc(C)cc1 when you have a moment?
inactive

Dear colleague, could you share the recorded outcome for O=C(Cc1ccccc1)Nc1nc2ccc(Cl)cc2c2nc(-c3ccco3)nn12 when you have a moment?
inactive

Dear colleague, could you share the recorded outcome for O=C1O/C(=C/c2ccccc2)C(c2ccccc2)=C1O when you have a moment?
inactive

Dear colleague, could you share the recorded outcome for C/C=C/C=C\C=C/C(O)C(C)C(CCC(C)C1OC(=O)C=CC1C)OP(=O)(O)O (stereo unspecified) when you have a moment?
active

Dear colleague, could you share the recorded outcome for COc1cc2c(c(OC)c1OC)-c1ccc(SC)c(=O)cc1C(CC(=O)Oc1ccccc1F)C2 (stereo unspecified) when you have a moment?
inactive

Dear colleague, could you share the recorded outcome for Cc1ccc2c(c1)C(=O)C1(C2)Cc2ccc(C)cc2C1=O when you have a moment?
inactive

Dear colleague, could you share the recorded outcome for CN(C)N1C(=O)S/C(=C\c2ccc([N+](=O)[O-])cc2)C1=O when you have a moment?
inactive

Dear colleague, could you share the recorded outcome for COc1cccc(-c2nc(-c3cnccn3)n(Cc3ccccc3)n2)c1 when you have a moment?
inactive

Dear colleague, could you share the recorded outcome for CN1c2ccccc2SC2C(c3ccccc3)=NOC21 (stereo unspecified) when you have a moment?
inactive

Dear colleague, could you share the recorded outcome for CC1(C)CC(=O)C(=CNc2nc(-c3ccccc3)cs2)C(=O)C1 when you have a moment?
inactive

Dear colleague, could you share the recorded outcome for CC1(C)CC(=O)c2c(nc3c4c([nH]c(-c5ccc([N+](=O)[O-])cc5)c24)CC(C)(C)C3)C1 when you have a moment?
inactive

Dear colleague, could you share the recorded outcome for O=C1C2C3CC(C4C5C=CC(C5)C34)C2C2C3CC(C12)C1C2C=CC(C2)C31 (stereo unspecified) when you have a moment?
inactive

Dear colleague, could you share the recorded outcome for Cc1nc2ccccc2n1CCc1nc2ccccc2[nH]1 when you have a moment?
inactive
